- EXPERIMENTAL_TARGET: EPHB1 (UniProt P54762)
- Sequence (P54762 whole entry, looked up): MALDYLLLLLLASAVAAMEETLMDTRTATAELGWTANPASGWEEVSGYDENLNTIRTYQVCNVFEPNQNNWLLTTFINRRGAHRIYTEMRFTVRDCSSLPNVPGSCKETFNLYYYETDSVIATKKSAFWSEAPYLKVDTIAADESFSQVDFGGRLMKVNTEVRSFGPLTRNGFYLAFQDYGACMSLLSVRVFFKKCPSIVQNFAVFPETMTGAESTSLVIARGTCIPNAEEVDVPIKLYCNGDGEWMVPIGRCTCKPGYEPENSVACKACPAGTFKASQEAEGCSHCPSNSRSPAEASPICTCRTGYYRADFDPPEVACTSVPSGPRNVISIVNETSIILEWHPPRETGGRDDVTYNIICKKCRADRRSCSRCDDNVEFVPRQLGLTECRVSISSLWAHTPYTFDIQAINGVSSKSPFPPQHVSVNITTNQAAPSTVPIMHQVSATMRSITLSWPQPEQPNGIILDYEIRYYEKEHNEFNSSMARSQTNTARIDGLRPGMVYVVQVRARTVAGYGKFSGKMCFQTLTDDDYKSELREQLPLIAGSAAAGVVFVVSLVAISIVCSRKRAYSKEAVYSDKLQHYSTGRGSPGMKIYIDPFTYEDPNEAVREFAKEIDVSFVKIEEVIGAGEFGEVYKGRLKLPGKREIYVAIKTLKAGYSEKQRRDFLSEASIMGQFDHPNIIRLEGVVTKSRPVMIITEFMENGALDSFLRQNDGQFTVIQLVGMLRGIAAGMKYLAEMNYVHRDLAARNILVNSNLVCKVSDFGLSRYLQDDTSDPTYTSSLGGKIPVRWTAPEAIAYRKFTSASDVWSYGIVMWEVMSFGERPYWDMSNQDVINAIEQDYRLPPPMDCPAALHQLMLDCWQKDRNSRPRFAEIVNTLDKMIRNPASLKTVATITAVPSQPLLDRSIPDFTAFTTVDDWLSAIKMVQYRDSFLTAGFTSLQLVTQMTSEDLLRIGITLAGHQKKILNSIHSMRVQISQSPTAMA
- ASSAY: phosphorylation enrichment, bacterial display (enrichment ratio); higher = better substrate or ligand; peptides without Tyr show the background;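 note: 11-residue human phosphosite peptides and single-mutation variants displayed on the E. coli surface, counted by deep sequencing, each peptide's frequency after selection divided by its frequency in the unselected input library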;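 note: frequency after pTyr selection over input frequency; kinase dosed for 20-30% of maximal phosphorylation in three min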
MEASURE_NAME: phosphorylation enrichment
No unit in the answer, please; the number alone is enough.

Problem: Reported phosphorylation enrichment for VHHLVYHHHHH [CACNA1H_Y519] : what is it?
Solution: 0.725

Problem: Next sequence: KPLMPYMRYSR [SMARCE1_Y73]
Solution: 0.353

Problem: How about this sequence: GREAEYSDKHG [EPHB4_Y574]
Solution: 0.392

Problem: Record: MPPHICAITDT [MYH9_Y151_Y151C]
Solution: 0.628

Problem: Quick one: SPFEVYVDKSQ [FLNA_Y373]
Solution: 0.669

Problem: Same read-out for SSNTEYLSASD [INSR_Y999_P997T] ?
Solution: 0.393

Problem: Note, next up: AQAERYDDMAA [YWHAG_Y20_E15A]
Solution: 0.577

Problem: # repeat for TLGPFYPSLLF [CRYAA_Y18_R21L]
Solution: 0.687

Problem: Now this one: YTDPYYDYEIE [ZC3H18_Y372_A368T]
Solution: 1.39

Problem: Check DVRQEYSGMIL [PLXND1_Y616_P617S] too.
Solution: 0.432

Problem: Also, KRLKDYLMVLQ [USP25_Y425_T427M] please.
Solution: 0.503

Problem: Now give it for VPVPGYTKLPE [SPRR3_Y146] too.
Solution: 0.544

Problem: What about this sequence? IIRYNYLLDVL [FGFR4_Y237_S232I]
Solution: 0.522

Problem: Another: FPKARYRWLVL [APTX_Y214_H215R_YF]
Solution: 0.448

Ref: the supplement of paper PMC10065799
